Field: IC50. Provide a value for each of the compounds that follow.
biological target: Activin receptor type-1 (Homo sapiens, UniProt Q04771, R258G); experiment: Inhibition of ALK2 R258G mutant (unknown origin)
Write it as a number; the unit nM goes unstated.

Task item: Which value of IC50 has been reported for COc1cc(-c2cncc(-c3ccc(N4CCNCC4)cc3)c2C)ccc1C(N)=O in the records?
Reply: 9

Task item: Which IC50 is reported for this compound? COc1cc(-c2cncc(-c3ccc(N4CCNCC4)cc3)c2C)cc(F)c1C(N)=O
Reply: 7

Task item: Which IC50 value is on record for Cc1c(-c2ccc(N3CCNCC3)cc2)cncc1-c1ccc2c(c1)CNC2=O ?
Reply: 363

Task item: Dear colleague, I am looking for the recorded IC50 of the following compound: COc1cc(-c2cncc(-c3ccc(N4CCNCC4)cc3)c2C)cc(Cl)c1C(N)=O
Reply: 4

Task item: Which IC50 value belongs to COc1cc(-c2cncc(-c3ccc(N4CCN(C)CC4)cc3)c2C)cc(F)c1C(N)=O ?
Reply: 17

----------
Assignment: determine reported pIC50 for the given compounds.
target: Activin receptor type-1 (Homo sapiens, UniProt Q04771, R206H); assay: Inhibition of human ALK2 R206H mutant using casein as substrate in presence of 10 uM [gamma33P] ATP by radioactive assay
Give only the number. pIC50 is defined as minus log10 of concentration in molar units.

Task item: Find the recorded pIC50 belonging to COc1cc(-c2cncc(-c3ccc(N4CCNCC4)cc3)c2C)ccc1C(N)=O and report it.
Reply: 8.05

Task item: State the recorded pIC50 for this entry: Cc1c(-c2ccc(N3CCNCC3)cc2)cncc1-c1ccc2c(c1)CNC2=O
Reply: 6.65

Task item: Given COc1cc(-c2cncc(-c3ccc(N4CCN(C)CC4)cc3)c2C)cc(OC)c1C(N)=O , state its recorded pIC50.
Reply: 8.40

Task item: Which pIC50 reading was recorded for the compound COc1cc(-c2cncc(-c3ccc(N4CCN(C)CC4)cc3)c2C)cc(F)c1C(N)=O ?
Reply: 7.72

Task item: Entry COc1cc(-c2cncc(-c3ccc(N4CCNCC4)cc3)c2C)cc(F)c1C(N)=O has what pIC50?
Reply: 8.10

Task item: What does the data say about its pIC50? Entry: COc1cc(-c2cncc(-c3ccc(N4CCNCC4)cc3)c2C)cc(Cl)c1C(N)=O
Reply: 8.30

----------
target: UniProt:Q12809
Sequence (Q12809 whole entry): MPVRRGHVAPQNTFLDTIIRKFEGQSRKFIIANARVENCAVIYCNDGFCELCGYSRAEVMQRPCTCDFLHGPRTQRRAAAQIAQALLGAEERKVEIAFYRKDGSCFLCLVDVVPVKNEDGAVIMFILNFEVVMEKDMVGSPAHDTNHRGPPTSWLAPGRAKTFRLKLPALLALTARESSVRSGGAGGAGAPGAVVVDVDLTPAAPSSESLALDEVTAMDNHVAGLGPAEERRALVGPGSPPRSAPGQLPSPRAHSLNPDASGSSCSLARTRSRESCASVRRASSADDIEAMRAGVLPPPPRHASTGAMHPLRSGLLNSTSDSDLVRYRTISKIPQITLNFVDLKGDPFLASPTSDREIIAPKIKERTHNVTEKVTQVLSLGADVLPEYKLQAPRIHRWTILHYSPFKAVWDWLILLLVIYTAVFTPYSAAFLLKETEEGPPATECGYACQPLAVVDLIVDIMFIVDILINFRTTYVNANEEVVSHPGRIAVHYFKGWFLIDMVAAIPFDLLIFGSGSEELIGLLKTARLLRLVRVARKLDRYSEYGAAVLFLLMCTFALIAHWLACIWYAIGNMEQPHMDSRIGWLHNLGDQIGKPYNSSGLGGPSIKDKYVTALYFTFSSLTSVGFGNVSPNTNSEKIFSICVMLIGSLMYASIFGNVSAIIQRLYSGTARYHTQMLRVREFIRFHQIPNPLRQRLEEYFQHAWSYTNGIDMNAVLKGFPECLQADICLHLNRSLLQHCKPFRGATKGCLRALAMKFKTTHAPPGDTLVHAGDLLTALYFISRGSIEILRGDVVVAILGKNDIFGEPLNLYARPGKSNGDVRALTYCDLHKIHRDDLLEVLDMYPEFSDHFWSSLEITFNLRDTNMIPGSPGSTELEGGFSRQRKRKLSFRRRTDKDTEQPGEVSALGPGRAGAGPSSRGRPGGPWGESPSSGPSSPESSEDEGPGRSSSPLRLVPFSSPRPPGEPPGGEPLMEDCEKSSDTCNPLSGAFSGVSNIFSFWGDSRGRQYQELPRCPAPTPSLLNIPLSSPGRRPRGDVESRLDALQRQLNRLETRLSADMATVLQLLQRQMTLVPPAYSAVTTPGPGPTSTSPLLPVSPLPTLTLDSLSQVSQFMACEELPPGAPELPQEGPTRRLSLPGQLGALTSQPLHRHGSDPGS
PROPERTY_NAME: IC50 (µM)
Express the result in µM but write the number alone.

Task item: // IC50 lookup, key: COc1cc(-c2cncc(-c3ccc(N4C[C@@H](C)N(C)[C@@H](C)C4)cc3)c2C)cc(F)c1C(N)=O
Reply: 19

----------
Target: Activin receptor type-1 (Homo sapiens, UniProt Q04771)
Sequence (Q04771 whole entry): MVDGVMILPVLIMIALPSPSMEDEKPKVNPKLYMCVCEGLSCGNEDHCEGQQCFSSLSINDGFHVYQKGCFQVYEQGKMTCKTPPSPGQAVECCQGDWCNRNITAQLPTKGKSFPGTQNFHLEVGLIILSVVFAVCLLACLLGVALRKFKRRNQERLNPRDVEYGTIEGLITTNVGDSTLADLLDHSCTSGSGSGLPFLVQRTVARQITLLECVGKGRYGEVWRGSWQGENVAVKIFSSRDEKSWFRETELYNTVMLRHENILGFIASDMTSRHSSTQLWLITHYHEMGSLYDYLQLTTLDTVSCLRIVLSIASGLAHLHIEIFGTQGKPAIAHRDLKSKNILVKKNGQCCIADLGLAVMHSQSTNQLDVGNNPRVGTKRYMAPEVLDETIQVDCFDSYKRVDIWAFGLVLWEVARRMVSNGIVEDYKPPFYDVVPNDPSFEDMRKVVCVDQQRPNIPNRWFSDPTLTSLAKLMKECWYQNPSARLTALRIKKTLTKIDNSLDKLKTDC
PROPERTY_NAME: IC50 (nM)
Your answer is read as nM, so omit the unit and give the number.

Task item: Any idea what its IC50 is? The molecule is COCc1cc(-c2cncc(-c3ccc(N4CCNCC4)cc3)c2C)ccc1C(N)=O
Reply: 687

Task item: What value of measured IC50 is listed for Cc1c(-c2ccc(C(N)=O)cc2)cncc1-c1ccc(N2CCNCC2)cc1 ?
Reply: 477

Task item: Looking for the measured IC50 of Cc1c(-c2ccc(N3CCNCC3)cc2)cncc1-c1ccc(C(N)=O)c(F)c1 , can you help?
Reply: 263

Task item: I'd like to know its IC50. The molecule in question is COc1cc(-c2cncc(-c3ccc(N4C[C@@H](C)N(C)[C@@H](C)C4)cc3)c2C)cc(F)c1C(N)=O
Reply: 10
